- System: P. falciparum 3D7 parasites
- ASSAY_TEXT: Metabolomic profiling of compound-treated parasites (LC/MS)
- Assay type: cell-based
Answer each item with its documented Metabolite data: Cyclic-AMP.

(Q) Retrieve Metabolite data: Cyclic-AMP measured for CCc1nc(N)nc(N)c1-c1ccc(Cl)cc1 and print it.
(A) 0.06421

(Q) Retrieve Metabolite data: Cyclic-AMP measured for C[C@H]1Cc2c([nH]c3cc(Cl)c(F)cc23)[C@@]2(N1)C(=O)Nc1ccc(Cl)cc12 and print it.
(A) -1.16

(Q) Retrieve Metabolite data: Cyclic-AMP measured for COc1cc2[nH]c(C)c(-c3ccc(Oc4ccc(OC(F)(F)F)cc4)cc3)c(=O)c2cc1Cl and print it.
(A) 0.1104

(Q) Retrieve Metabolite data: Cyclic-AMP measured for Cc1cc(Nc2ccc3ccccc3c2)n2ncnc2n1 and print it.
(A) -0.9051

(Q) Retrieve Metabolite data: Cyclic-AMP measured for CC1(C)N=C(N)N=C(N)N1OCCCOc1cc(Cl)c(Cl)cc1Cl and print it.
(A) 0

(Q) Retrieve Metabolite data: Cyclic-AMP measured for CCN(CC)S(=O)(=O)c1ccc(Cl)c(C(=O)Nc2ccc3nc(C)sc3c2)c1 and print it.
(A) 0.2994

(Q) Retrieve Metabolite data: Cyclic-AMP measured for O=C1C(O)=C([C@H]2CC[C@H](c3ccc(Cl)cc3)CC2)C(=O)c2ccccc21 [Atovaquone, reference compound] and print it.
(A) 0.13

(Q) Retrieve Metabolite data: Cyclic-AMP measured for N#Cc1cc(NC(=O)[C@H]2c3ccccc3C(=O)N(CC(F)(F)F)[C@@H]2c2cccnc2)ccc1F and print it.
(A) -1.252

(Q) Retrieve Metabolite data: Cyclic-AMP measured for O=C(NNC(=O)c1csnn1)c1ccc(Cl)cc1 and print it.
(A) -0.2917
